B1: CLCN6 (parent)
chain: TGLVGLFVDFFVRLFTQLKFGVVQ

variants of: B1; experiment: protein stability index of a GFP-peptide fusion (GPS, HEK-293T) (PSI 1-6); higher = more stable; conditions: c terminus: a fixed tail appended;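 note: lentivirally expressed fusions sorted by FACS into six bins by GFP to DsRed ratio, PSI derived from sequencing read proportions per bin multiplied by bin number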
Each entry below carries its reported protein stability index.
Form field (numeric): enter value without unit.

The following variants have reported results that may help.
F7T | 2.35
F10K | 1.98
K19Y | 2.85
R13W | 2.1
G21P | 2.35
T1D | 2.39
T16L | 2.02
G21D | 2.38
V23H | 1.81
Q17I | 1.79

Exercise: Respond only with protein stability index recorded for G21R
Key: 3.56

Exercise: Provide only the value of recorded protein stability index for G5S
Key: 2.21

Exercise: Using known records, supply protein stability index for V12Q
Key: 2.52

Exercise: Supply reported protein stability index belonging to this variant: R13D
Key: 1.83

Exercise: Read the entry T1N and write its reported protein stability index.
Key: 1.8

Exercise: Report protein stability index, nothing else, for this variant: R13Q
Key: 1.81

Exercise: Quick one: give measured protein stability index for T1I
Key: 1.56
